- TARGET_OR_TEST_SYSTEM: Cellular tumor antigen p53 (Homo sapiens) (UniProt P04637)
- Sequence (P04637 whole entry, looked up): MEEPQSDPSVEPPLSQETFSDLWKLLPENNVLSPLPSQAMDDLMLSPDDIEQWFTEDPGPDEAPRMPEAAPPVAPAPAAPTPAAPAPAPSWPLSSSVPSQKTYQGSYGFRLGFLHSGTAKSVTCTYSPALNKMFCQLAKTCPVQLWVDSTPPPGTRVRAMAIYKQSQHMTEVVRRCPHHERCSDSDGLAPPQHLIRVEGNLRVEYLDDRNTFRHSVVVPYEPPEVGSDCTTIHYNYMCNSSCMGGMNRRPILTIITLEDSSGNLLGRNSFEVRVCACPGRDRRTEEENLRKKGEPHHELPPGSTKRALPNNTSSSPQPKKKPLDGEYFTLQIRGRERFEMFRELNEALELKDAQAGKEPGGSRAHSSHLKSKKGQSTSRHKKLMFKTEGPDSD
- ASSAY_OVERVIEW: Primary qHTS for small molecule compounds that upregulate eGFP-tagged delta133p53alpha (in N-terminal) cells. (AID 2060322);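 also: cells pre-induced with doxycycline then dosed without doxycycline; series mostly up to about 56 µM; 0% = DMSO vehicle and 100% = reference activator; nearly all actives have a fitted effect of over 75% in size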
- RUN_CONDITIONS: NCI-H358 eGFP-delta133p53alpha fluorescence, 24 h; active compounds read high
Records with an inconclusive call do not appear.
OBSERVED_PROPERTY: activation (%)

- CCN1CCC[C@@H]1CNC(=O)c1ccc2c(c1)NC(=O)c1cccc(C)c1S2: 19.7
- CC1(CO)CC[C@]2(C(=O)O[C@@H]3O[C@H](CO)[C@@H](O)[C@H](O)[C@H]3O)CC[C@]3(C)C(=CCC4[C@@]5(C)CC[C@H](O[C@@H]6O[C@H](C(=O)O)[C@@H](O)[C@H](O)[C@H]6O)C(C)(C)C5CC[C@]43C)C2C1 (stereo partly drawn): -4.46
- Nc1ccc(S(=O)(=O)c2ccc(N)cc2)cc1: 7.53
- CCC(CC)(CC(=O)Nc1cccc(/C=C/c2nc(C3CCC3)cs2)c1)C(=O)O: 24.3
- COc1ccc(NC(=O)C2C[C@H](C)CC[C@H]2C(C)C)cc1 (stereo partly drawn): 5.67
- CC1(C)CC[C@]2(C(=O)O[C@@H]3O[C@H](CO)[C@@H](O)[C@H](O)[C@H]3O)CC[C@]3(C)C(=CCC4[C@@]5(C)C[C@@H](O)[C@H](O)[C@@](C)(CO)C5[C@H](O)C[C@]43C)C2C1 (stereo partly drawn): 3.82
- CC(=O)O[C@@H]1[C@@H](OC(=O)/C=C/c2ccccc2)[C@@H](OC(C)=O)[C@H](O[C@H]2[C@@H]3C=CO[C@@H](O[C@@H]4O[C@H](CO)[C@@H](O)[C@H](O)[C@H]4O)[C@@H]3[C@@]3(CO)O[C@@H]23)O[C@H]1C: -12.2
- COC(=O)c1cccnc1: -4.18

* * *

- TARGET_OR_TEST_SYSTEM: Cellular tumor antigen p53 (Homo sapiens) (UniProt P04637)
- ASSAY_OVERVIEW: Primary qHTS for small molecule compounds that upregulate eGFP-tagged delta133p53alpha (in N-terminal) cells. (AID 2060322);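 also: cells pre-induced with doxycycline then dosed without doxycycline; series mostly up to about 56 µM; 0% = DMSO vehicle and 100% = reference activator; nearly all actives have a fitted effect of over 75% in size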
- RUN_CONDITIONS: NCI-H358 eGFP-delta133p53alpha fluorescence, 24 h; active compounds read high
Results filed as inconclusive are left out.
OBSERVED_PROPERTY: activation (%)

- C=CCNc1ncnc2ccc(Br)cc12: -43.6
- CC1(C)CCC(NC(=O)[C@@H](N)CCC(=O)O)CC1: -8.15
- COc1cc(CCC2=NN=C(NC(=O)c3ccc(N4C[C@@H](C)N[C@@H](C)C4)cc3)C2)cc(OC)c1: -0.333
- Cn1c(=O)c(F)c(Nc2ccc(I)cc2F)c2c(=O)n(C[C@@H](O)CO)cnc21: 15.6
- CC(C)CCOC(=O)c1ccc(N(C)C)cc1: 6.69
- COC(=O)C(CC1(O)c2ccccc2N2C(=O)C(CC(C)C)NC21)n1cnc2ccccc2c1=O (stereo not drawn): -1.53
- CO[C@H]1C[C@@H]2CC[C@@H](C)[C@@](O)(O2)C(=O)C(=O)N2CCCC[C@H]2C(=O)O[C@H]([C@H](C)C[C@@H]2CC[C@H](n3cnnn3)[C@H](OC)C2)CC(=O)[C@H](C)/C=C(\C)[C@@H](O)[C@@H](OC)C(=O)[C@H](C)C[C@H](C)/C=C/C=C/C=C/1C: 1
- O=C(CCc1ccccc1)N1CCC(O)(Cn2cnc3cc(Cl)ccc3c2=O)CC1: -13.7
